- SYSTEM TESTED: HIV Env, isolate SC422661.8 (HIV)
- MEASUREMENT NOTES: cell-based or functional assay
Quick reference for IC80 (µg/ml) with constrains among some binders
State the answer as a number, implicitly in µg/mL.

Would you please look over these solved cases?
INSERT INTO assay_data (binder, parameter_measured, measurement) VALUES
  ('ePGDM9 (antibody, V domains shown) VH: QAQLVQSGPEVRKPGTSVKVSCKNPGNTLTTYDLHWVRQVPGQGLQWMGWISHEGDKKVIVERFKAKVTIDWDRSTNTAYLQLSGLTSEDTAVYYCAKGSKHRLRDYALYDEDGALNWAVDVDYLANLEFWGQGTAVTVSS VL: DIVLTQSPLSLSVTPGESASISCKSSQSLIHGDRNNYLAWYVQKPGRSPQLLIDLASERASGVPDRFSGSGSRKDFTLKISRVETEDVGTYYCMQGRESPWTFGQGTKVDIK', 'IC80 (µg/ml) with constrains', 5.33),
  ('ePGDM13 (antibody, V domains shown) VH: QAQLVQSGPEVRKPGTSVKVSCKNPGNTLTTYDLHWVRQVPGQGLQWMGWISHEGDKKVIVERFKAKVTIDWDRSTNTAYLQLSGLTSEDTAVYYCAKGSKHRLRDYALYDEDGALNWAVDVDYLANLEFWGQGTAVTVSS VL: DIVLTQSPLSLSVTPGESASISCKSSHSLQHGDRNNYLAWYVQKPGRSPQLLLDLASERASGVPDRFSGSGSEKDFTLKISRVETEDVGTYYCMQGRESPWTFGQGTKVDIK', 'IC80 (µg/ml) with constrains', 6.26),
  ('ePGDM5 (antibody, V domains shown) VH: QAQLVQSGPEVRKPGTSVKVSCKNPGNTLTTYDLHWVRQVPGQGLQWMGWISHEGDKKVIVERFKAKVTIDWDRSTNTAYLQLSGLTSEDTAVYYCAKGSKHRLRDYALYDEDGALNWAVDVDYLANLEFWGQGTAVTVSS VL: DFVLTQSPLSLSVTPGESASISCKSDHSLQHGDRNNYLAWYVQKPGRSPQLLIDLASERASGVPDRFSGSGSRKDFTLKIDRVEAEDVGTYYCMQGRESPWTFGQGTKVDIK', 'IC80 (µg/ml) with constrains', 5.33);

// next item, IC80 (µg/ml) with constrains requested
QUERY: Supply IC80 (µg/ml) with constrains value. Item: PGDM1400 (antibody, V domains shown) VH: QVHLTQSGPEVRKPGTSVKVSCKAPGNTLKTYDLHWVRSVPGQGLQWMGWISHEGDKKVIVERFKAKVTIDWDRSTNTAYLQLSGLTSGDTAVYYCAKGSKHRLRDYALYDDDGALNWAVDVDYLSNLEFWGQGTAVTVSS VL: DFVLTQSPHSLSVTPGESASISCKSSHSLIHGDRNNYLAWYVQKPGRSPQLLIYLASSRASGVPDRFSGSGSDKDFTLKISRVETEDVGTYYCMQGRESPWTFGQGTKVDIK
RESULT: 62.8

Data origin, for the record: patent US20230134571A1
